- Test system: S. epidermidis strain ATCC 35984
- assay.overview: Biofilm prevention screen (96-well microplate, crystal violet)
- Format: cell-based
- condition.context: Staphylococcus epidermidis, ATCC35984, 390 μM, positive = prevention, negative = enhancement of biofilm formation, quadruplicate, read-out: average percentage reduction of biofilm formed relative to DMSO controls
Reported inhibition at 390 µM values for the following compounds.

>  <query.smiles>
CCCCNC(=O)[C@H]1CCCN1

>  <result.unit>
%

>  <inhibition at 390 µM>
-47

$$$$
>  <query.smiles>
CCCCCCCCNC(=O)[C@H]1CCCCN1

>  <result.unit>
%

>  <inhibition at 390 µM>
-36

$$$$
>  <query.smiles>
CCCCCCCCNC(=O)[C@@H]1CCCN1

>  <result.unit>
%

>  <inhibition at 390 µM>
-27

$$$$
>  <query.smiles>
CCCCCCCCNC(=O)[C@@H]1CCN1C(=O)OC(C)(C)C

>  <result.unit>
%

>  <inhibition at 390 µM>
56

$$$$
>  <query.smiles>
CCCCCCNC(=O)[C@@H]1CCN1C(=O)OC(C)(C)C

>  <result.unit>
%

>  <inhibition at 390 µM>
-23

$$$$
>  <query.smiles>
CCCCCCCCNC(=O)[C@H]1CCCCN1C(=O)OC(C)(C)C

>  <result.unit>
%

>  <inhibition at 390 µM>
3

$$$$
>  <query.smiles>
CCCCCCCCCCCCNC(=O)[C@@H]1CCN1

>  <result.unit>
%

>  <inhibition at 390 µM>
97

$$$$
>  <query.smiles>
CCCCCCCCNC(=O)[C@@H]1CCCN1C(=O)OC(C)(C)C

>  <result.unit>
%

>  <inhibition at 390 µM>
37

$$$$
>  <query.smiles>
CCCCCCCCNC(=O)[C@@H]1CCN1

>  <result.unit>
%

>  <inhibition at 390 µM>
99

$$$$
>  <query.smiles>
CCCCCCCCCCNC(=O)[C@H]1CCCN1C(=O)OC(C)(C)C

>  <result.unit>
%

>  <inhibition at 390 µM>
54

$$$$
